The reported numbers originate from PubChem BioAssay (NCI).

Measured TGI accompanies every entry in the list below.
System: MDA-MB-435
RUN DESCRIPTION: NCI tumour cell line growth inhibition, 48 h

Take a look at these entries with their results.
O=C1c2cc(Cl)ccc2-n2c(noc2=O)C2CSCN12 (stereo not given); > 100 µM
O=C1CCSSCCC(=O)Nc2ccccc2N1; > 100 µM

Input `COc1cc(S(=O)(=O)Nc2nc(-c3ccc(N4C(=O)/C(=C/c5ccccc5)N=C4c4ccccc4)cc3)cs2)ccc1Cl` . Output TGI: > 100 µM

The compound listed as `N#Cc1c(N)c(-c2ccc(Cl)cc2)c(F)c2ccccc12` shows TGI equal to > 100 µM

Documented TGI of `CN(C)c1ccc(-c2nc(-c3cc4c(ccc5ccccc54)oc3=O)cs2)cc1` : > 100 µM

In plain terms, COc1cc(C(c2cc3c(cc2O)OCO3)N2CCCC2)cc(OC)c1OC (stereo not given) has a documented TGI of 32.5 µM

Recorded TGI (compound CC1(CC(=O)O)OC2CCCCCC2O1 (stereo not given) (tested in a mixture with another compound) ): > 100 µM

The compound `O=C1c2ccccc2S(=O)(=O)c2ccccc21` showed TGI equal to > 100 µM

Briefly, TGI measured for COc1ccc(N2C(=O)C3c4[nH]c5ccc(C)cc5c4C4CCC(C(C)C)CC4C3C2=O)cc1 (stereo not given) : > 100 µM

The compound listed as `CCN(CC)CCOc1ccc(/C=C2\C[C@H]3[C@@H]4CC=C5C[C@@H](OC(C)=O)CC[C@]5(C)[C@H]4CC[C@]3(C)[C@H]2OC(C)=O)cc1OC` shows TGI equal to 21.7 µM

The recorded TGI for entry `COc1ccccc1C(=O)c1cnc(NC2CCN(S(C)(=O)=O)CC2)nc1N` equals > 25 µM

Recorded result, C=C(CCOC)CCC1CCCCC(=C)C1=O (stereo not given) , TGI: > 100 µM

###

Tested on: T-47D breast
RUN DESCRIPTION: NCI tumour cell line growth inhibition, 48 h
OBSERVATION TYPE: TGI

`COc1ccccc1Cn1cc2c(c1)-c1oncc1CC2` has a reported TGI of > 100 µM

# TGI (compound: `CN1C(=O)c2cc(Cl)nc3c(NC(=O)c4cccc(Cl)c4)c(Cl)c(NC(=O)c4cccc(Cl)c4)c1c23` ) is 4.32 µM

// TGI value for `CC[C@@]1(OC(=O)CN)C(=O)OCc2c1cc1n(c2=O)Cc2cc3cc(N)ccc3nc2-1` : > 100 µM

The reported value for `O=C1c2ccccc2S(=O)(=O)c2ccccc21` in terms of TGI is > 100 µM

Record CC1Cc2c(N(C)C)ncnc2N(C)c2ccc(Cl)cc21 (stereo not given) , field TGI: > 100 µM

So, `COc1cn2c(cc1=O)COc1ccc(-c3ccccc3)cc1-2` ? Its TGI was > 83.3 µM

Form field TGI, entry `CC(=O)N(C(C)=O)n1c(Cc2ccc(Cl)cc2)nn(C(C)=O)c1=O` : > 100 µM

Record `O=C1/C(=C/c2cccc(Oc3ccccc3)c2)N=C(c2ccccc2)N1c1nc2ccc(Sc3ccccc3)cc2[nH]1` , field TGI: > 100 µM

Input `CC1=NN(c2nc(N)nc(/C(C#N)=C/c3ccncc3)n2)C(C)(C)C1` . Output TGI: > 100 µM

Noted for `COc1ccc(/C=N/Nc2[nH]c(=S)nc3[nH]ncc23)cc1` : its TGI reads 44.2 µM
